SYSTEM: recombinant human PAI-1 (Homo sapiens)
TEST_METHOD_NOTES: Test Example 4: Human PAI-1 Inhibitory Activity (amount of PAI-1 bound to plate-coated one-chain tPA, ELISA)
Assay type: biochemical
Set-up: purchased Molecular Innovations, Inc
TEST_PARAMETERS: human PAI-1 bound to tPA; Compound Concentration 3µM; read-out: Inhibition Rate of PAI-1 Activity (%)
inhibition at 3 µM values, listed per item
PROPERTY_NAME: inhibition at 3 µM (%)

1. CC(C)(C)c1ccc(Oc2cc(Oc3ccc(OC(F)(F)F)cc3)ccc2CCC(=O)O)cc1 :: 70
2. CC(C)(Oc1cccc(-c2ccc(OC(F)(F)F)cc2)c1OCc1ccc(C(C)(C)C)cc1)C(=O)O :: 46
3. CC(C)(C)c1ccc(CN(C(=O)C(=O)O)c2cccc(-c3ccc(OC(F)(F)F)cc3)c2)cc1 :: 15
4. CCC(CC)Oc1ccc(N(Cc2ccc(C(C)(C)C)cc2)C(=O)C(=O)O)cc1-c1ccc(OC(F)(F)F)cc1 :: 73
5. COc1cc(OC)c(N(Cc2ccc(C(C)(C)C)cc2)C(=O)C(=O)O)cc1-c1ccc(OC(F)(F)F)cc1 :: 55
6. CCCCCOc1ccc(-c2ccc(OC(F)(F)F)cc2)cc1N(CCCCc1ccccc1)C(=O)C(=O)O :: 65

* * *

SYSTEM: recombinant human PAI-1 (Homo sapiens)
TEST_METHOD_NOTES: Test Example 2: Human PAI-1 Inhibitory Activity (pH 7.4 HEPES buffer, 10 minutes incubation with two-chain tPA)
Format: biochemical
Design: purchased Molecular Innovations, Inc
TEST_PARAMETERS: read-out: Inhibition Rate of PAI-1 Activity (%)
inhibition at 3 µM values, listed per item
PROPERTY_NAME: inhibition at 3 µM (%)

1) CC(Oc1cc(-c2ccc(OC(F)(F)F)cc2)ccc1/C=C/C(=O)O)c1ccccc1 (stereo not shown) [Compound 500] :: 80
2) CC(C)(C)c1ccc(COc2cc(Oc3ccc(OC(F)(F)F)cc3)ccc2CCC(=O)O)cc1 [Compound 78] :: 96
3) CC(C)(C)c1ccc(Oc2cc(-c3ccc(F)cc3)ccc2OCC(=O)O)cc1 [Compound 459] :: 86
4) CC(C)(C)c1ccc(COc2ccc(-c3ccc(OC(F)(F)F)cc3)cc2CCC(=O)O)cc1 [Compound 5] :: 90
5) CCCCC(C(=O)O)N(Cc1ccc(C(C)(C)C)cc1)c1cccc(-c2ccc(OC(F)(F)F)cc2)c1 (stereo not shown) [Compound 641] :: 95
6) CC(C)(C)c1ccc(CN(C(=O)C(=O)O)c2ccc(Oc3ccc(OC(F)(F)F)cc3)cc2C(F)(F)F)cc1 [Compound 174] :: 96
7) CCCCCCC(Oc1cc(-c2ccc(OC(F)(F)F)cc2)ccc1Oc1ccc(OC(F)(F)F)cc1)C(=O)O (stereo not shown) [Compound 326] :: 94
8) CCCCCOc1ccc(-c2cccc(OC(F)(F)F)c2)cc1N(CCCCc1ccccc1)C(=O)C(=O)O [Compound 391] :: 89
9) CCCN(CC(=O)O)c1cc(-c2ccc(OC(F)(F)F)cc2)ccc1Oc1ccc(C(C)(C)C)cc1 [Compound 435] :: 98
10) CC(Oc1cc(-c2ccc(OC(F)(F)F)cc2)ccc1CCC(=O)O)c1ccccc1 (stereo not shown) [Compound 501] :: 83
11) O=C(O)C(=O)N(Cc1ccc(-c2ccc(OC(F)(F)F)cc2)cc1)c1ccccc1 [Compound 611] :: 13
12) CCCCN(CC(=O)O)c1cc(-c2ccc(OC(F)(F)F)cc2)ccc1OCCCCc1ccccc1 [Compound 433] :: 98
13) CC(C)(Oc1c(Oc2ccc(C(C)(C)C)cc2)cccc1-c1ccc(OC(F)(F)F)cc1)C(=O)O [Compound 251] :: 83
14) CCCCCCCCCCCCCCCOc1ccc(-c2ccc(OC(F)(F)F)cc2)cc1N(CCCCc1ccccc1)C(=O)C(=O)O [Compound 375] :: 79
15) CC(C)(C)c1ccc(Oc2ccc(Oc3ccc(OC(F)(F)F)cc3)cc2CCC(=O)O)cc1 [Compound 100] :: 93
16) CCCCCCCCOc1ccc(-c2ccc(OC(F)(F)F)cc2)cc1N(CCCCc1ccccc1)C(=O)C(=O)O [Compound 353] :: 87
17) CC(C)(C)c1cccc(Oc2ccc(-c3ccc(OC(F)(F)F)cc3)cc2/C=C/C(=O)O)c1 [Compound 437] :: 98
18) CCCCCN(C(=O)C(=O)O)c1cc(-c2ccc(OC(F)(F)F)cc2)ccc1OCCCCc1ccccc1 [Compound 358] :: 98
19) CCC(CC)Oc1ccc(-c2ccc(CCC(=O)O)c(Oc3ccc(C(C)(C)C)cc3)c2)cc1 [Compound 522] :: 98
20) CC(C)(C)Oc1ccc(-c2ccc(OC(F)(F)F)cc2)cc1N(CCCCc1ccccc1)C(=O)C(=O)O [Compound 373] :: 90
21) CCCCCOc1cc(-c2cccc(OC(F)(F)F)c2)ccc1N(CCCCc1ccccc1)C(=O)C(=O)O [Compound 393] :: 97
22) CC(C)(C)c1ccc(Oc2cc(-c3cc(Cl)ccc3Cl)ccc2OCC(=O)O)cc1 [Compound 455] :: 99

* * *

inhibition at 3 µM values, listed per item
SYSTEM: recombinant human PAI-1 (Homo sapiens, UniProt P05121)
Sequence (P05121 24-402): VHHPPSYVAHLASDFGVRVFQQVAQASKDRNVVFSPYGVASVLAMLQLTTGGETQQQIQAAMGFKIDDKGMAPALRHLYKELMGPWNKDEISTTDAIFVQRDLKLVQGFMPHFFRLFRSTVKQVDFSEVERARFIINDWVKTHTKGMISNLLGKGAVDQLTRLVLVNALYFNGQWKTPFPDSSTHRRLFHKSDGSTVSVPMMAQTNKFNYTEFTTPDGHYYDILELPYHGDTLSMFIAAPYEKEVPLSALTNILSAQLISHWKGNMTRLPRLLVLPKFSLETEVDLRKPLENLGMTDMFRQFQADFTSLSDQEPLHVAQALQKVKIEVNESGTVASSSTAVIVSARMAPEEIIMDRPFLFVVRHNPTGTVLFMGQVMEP
TEST_METHOD_NOTES: Test Example 2: Human PAI-1 Inhibitory Activity (pH 7.4 HEPES buffer, 10 minutes incubation with two-chain tPA)
Type: biochemical
Parameters: purchased Molecular Innovations, Inc
TEST_PARAMETERS: read-out: Inhibition Rate of PAI-1 Activity (%)
PROPERTY_NAME: inhibition at 3 µM (%)

1) CC(C)(C)c1ccc(N(CC(=O)O)c2ccccc2Oc2ccc(OC(F)(F)F)cc2)cc1 :: 94
2) CC(C)(C)c1ccc(Oc2ccc(-c3cccc(OC(F)(F)F)c3)cc2OCC(=O)O)cc1 :: 98
3) O=C(O)/C=C/c1cc(-c2ccc(OC(F)(F)F)cc2)ccc1OCCCCCOc1ccc(-c2ccc(OC(F)(F)F)cc2)cc1/C=C/C(=O)O :: 94
4) CC(C)(C)c1ccc(Oc2ccc(-c3ccc(OC(F)(F)F)cc3)cc2N(CCCCc2ccccc2)C(=O)C(=O)O)cc1 :: 81
5) CC(C)(C)c1ccc(CN(C(=O)C(=O)O)c2cccc(-c3ccc(OC(F)(F)F)cc3)c2)cc1 :: 84
6) CCCCOc1ccc(-c2ccc(OC(F)(F)F)cc2)cc1N(CCCCc1ccccc1)C(=O)C(=O)O :: 98
7) O=C(O)/C=C/c1ccc(-c2ccc(OC(F)(F)F)cc2)cc1Sc1ccccc1 :: 97
8) CC(C)[C@@H]1CC[C@@H](C)C[C@H]1Oc1ccc(-c2ccc(OC(F)(F)F)cc2)cc1N(CCCCc1ccccc1)C(=O)C(=O)O :: 87
9) Cc1cccc(-c2ccc(OCC(=O)O)c(Oc3ccc(C(C)(C)C)cc3)c2)c1 :: 70
10) CCCCCCC(Oc1cc(-c2ccc(OC(F)(F)F)cc2)ccc1Oc1ccc(C(C)(C)C)cc1)C(=O)O (stereo not drawn) :: 82
11) CCCCOc1ccc(-c2ccc(OC(F)(F)F)cc2)cc1C=CC(=O)O :: 63
12) CC(C)(C)c1ccc(CN(C(=O)CC(=O)O)c2ccc(-c3ccc(OC(F)(F)F)cc3)cc2)cc1 :: 59
13) CCCCC(Oc1cc(-c2ccc(OC(F)(F)F)cc2)ccc1OCCCCc1ccccc1)C(=O)O (stereo not drawn) :: 97
14) CCCCCOc1cc(-c2ccc(OC(F)(F)F)cc2)cc(N(CCCCc2ccccc2)C(=O)C(=O)O)c1OCCCCC :: 93
15) CCCCCCC(Oc1cc(-c2ccc(OC(F)(F)F)cc2)ccc1Oc1ccccc1)C(=O)O (stereo not drawn) :: 92
16) CCCCCOc1cc(-c2cccc(C(F)(F)F)c2)ccc1N(CCCCc1ccccc1)C(=O)C(=O)O :: 94

* * *

SYSTEM: recombinant human PAI-1 (Homo sapiens)
TEST_METHOD_NOTES: Test Example 2: Human PAI-1 Inhibitory Activity (pH 7.4 HEPES buffer, 10 minutes incubation with two-chain tPA)
Format: biochemical
Parameters: purchased Molecular Innovations, Inc
TEST_PARAMETERS: read-out: Inhibition Rate of PAI-1 Activity (%)
inhibition at 0.3 µM values, listed per item
PROPERTY_NAME: inhibition at 0.3 µM (%)

1. CCCCCOc1cc(Oc2ccc(OC(F)(F)F)cc2)ccc1N(CCCCc1ccccc1)C(=O)C(=O)O :: 18
2. O=C(O)CCc1ccc(-c2ccc(OC(F)(F)F)cc2)cc1OCCCOCc1ccccc1 :: 10
3. CCCCN(CC(=O)O)c1ccc(-c2ccc(OC(F)(F)F)cc2)cc1Oc1ccc(C(C)(C)C)cc1 :: 83
4. CCC(CC)Oc1ccc(-c2ccc(/C=C/C(=O)O)c(Oc3ccc(C(C)(C)C)cc3)c2)cc1 :: 82
5. CC(C)(C)c1ccc(Oc2ccc(Nc3ccc(OC(F)(F)F)cc3)cc2/C=C/C(=O)O)cc1 :: 0
6. CC(C)(C)c1ccc(Oc2cc(-c3ccc(OC(F)(F)F)cc3)ccc2C(=O)O)cc1 :: 8
7. O=C(O)C(=O)N(CCCCc1ccccc1)c1cc(-c2ccc(OC(F)(F)F)cc2)ccc1OCCCCCO :: 4
8. CCCCOc1ccc(Oc2cc(-c3ccc(OC(F)(F)F)cc3)ccc2CCC(=O)O)cc1 :: 26

Reference source for all entries: patent EP2272817A1
